- Test system: Plasmodium falciparum
- METHOD_DESCRIPTION: GSK_TCMDC: Inhibition of Plasmodium falciparum Dd2 in whole red blood cells, using parasite LDH activity as an index of growth. Test compounds present at 2uM
- Assay type: functional
Overview of recorded Inhibition for various molecules

[
  {
    "SMILES_INPUT": "CCCCc1ccc(-c2nc(NC(=O)Nc3[nH]c(-c4ccccc4)nc3C(=O)OCC)c(C(=O)OCC)[nH]2)cc1",
    "Inhibition [%]": 26
  },
  {
    "SMILES_INPUT": "O=C(/C=C/c1ccc(Cl)c(Cl)c1)NCCCCCN1CCC(NC(=O)Nc2cc(F)ccc2F)CC1",
    "Inhibition [%]": 22
  },
  {
    "SMILES_INPUT": "COc1ccc2nccc([C@@H](O)CN3CCC(NCc4ccc5c(c4)N(C)C(=O)CO5)CC3)c2c1.O=C(O)C(=O)O",
    "Inhibition [%]": 95
  },
  {
    "SMILES_INPUT": "O=C(c1cc(C(=O)Nc2ccccc2F)c(=O)n(-c2ccccc2F)c1)c1cc(Cl)ccc1O",
    "Inhibition [%]": 80
  }
]

###

- Tested on: Plasmodium falciparum
- METHOD_DESCRIPTION: GSK_TCMDC: Inhibition of Plasmodium falciparum Dd2 in whole red blood cells, using parasite LDH activity as an index of growth. Test compounds present at 2uM
- Format: functional
METRIC_NAME: Inhibition (%)

[
  {
    "MOLECULE": "Clc1nc(Cl)c2c(ccn2Cc2ccccc2)n1",
    "TGT": "Plasmodium falciparum",
    "METRIC_NAME": "Inhibition",
    "RECORDED_MEASUREMENT": 61
  },
  {
    "MOLECULE": "CCc1cn2c3c(cc(C(=O)N[C@@H](Cc4cccc(Cl)c4)[C@H](O)CNC4CCOCC4)cc13)N(C)S(=O)(=O)CC2.O=CO",
    "TGT": "Plasmodium falciparum",
    "METRIC_NAME": "Inhibition",
    "RECORDED_MEASUREMENT": 98
  },
  {
    "MOLECULE": "O=C(NC1CCN(c2ccnc(Nc3ccc(F)cc3)n2)C1)c1cc2ccccc2s1 (stereo not given)",
    "TGT": "Plasmodium falciparum",
    "METRIC_NAME": "Inhibition",
    "RECORDED_MEASUREMENT": 80
  },
  {
    "MOLECULE": "CC(C)(CNCc1cccc(Oc2ccccc2)c1)c1nc(-c2ccnc(N)n2)c(-c2ccc(Cl)c(O)c2)[nH]1.Cl",
    "TGT": "Plasmodium falciparum",
    "METRIC_NAME": "Inhibition",
    "RECORDED_MEASUREMENT": 99
  },
  {
    "MOLECULE": "COc1cc(NC(=O)/C=C/c2cc(F)cc(F)c2F)cc(OCCN2CCC(O)(c3ccccc3)CC2)c1.O=C(O)C(=O)O",
    "TGT": "Plasmodium falciparum",
    "METRIC_NAME": "Inhibition",
    "RECORDED_MEASUREMENT": 82
  },
  {
    "MOLECULE": "COc1ccc2ncc(C#N)c(CCN3C[C@H](CNCc4ccccc4)[C@H](O)C3)c2n1.Cl",
    "TGT": "Plasmodium falciparum",
    "METRIC_NAME": "Inhibition",
    "RECORDED_MEASUREMENT": 24
  },
  {
    "MOLECULE": "O=C(c1ccc(-c2ccc(-c3nc4cc(C(F)(F)F)ccc4[nH]3)s2)cc1)N1CCCCC1CN1CCC(O)C1 (stereo not given)",
    "TGT": "Plasmodium falciparum",
    "METRIC_NAME": "Inhibition",
    "RECORDED_MEASUREMENT": 80
  },
  {
    "MOLECULE": "CCNC[C@H]1CCCN1CCOc1ccc(-n2cnc3cc(-c4ccc(Cl)cc4)sc3c2=O)cc1OC.O=C(O)C(F)(F)F",
    "TGT": "Plasmodium falciparum",
    "METRIC_NAME": "Inhibition",
    "RECORDED_MEASUREMENT": 39
  },
  {
    "MOLECULE": "Nc1nc(O)c2c(n1)CCc1c(Br)cccc1-2",
    "TGT": "Plasmodium falciparum",
    "METRIC_NAME": "Inhibition",
    "RECORDED_MEASUREMENT": 0
  },
  {
    "MOLECULE": "Cl.Nc1nc(N)c2c(ccc3c2cnn3S(=O)(=O)N2CCCC2)n1",
    "TGT": "Plasmodium falciparum",
    "METRIC_NAME": "Inhibition",
    "RECORDED_MEASUREMENT": 3
  },
  {
    "MOLECULE": "CCc1ccccc1N1CCN(CCCC(=O)c2ccc(NC(=O)c3cc(Cl)cc(Cl)c3)cc2)CC1",
    "TGT": "Plasmodium falciparum",
    "METRIC_NAME": "Inhibition",
    "RECORDED_MEASUREMENT": 46
  },
  {
    "MOLECULE": "COc1c(C)[nH]c(C)c(-c2ccc(Oc3cccc(C(F)(F)F)c3)cc2)c1=O",
    "TGT": "Plasmodium falciparum",
    "METRIC_NAME": "Inhibition",
    "RECORDED_MEASUREMENT": 96
  },
  {
    "MOLECULE": "Br.CC1(C)NC(N)=NC(=N)N1OCc1cccs1",
    "TGT": "Plasmodium falciparum",
    "METRIC_NAME": "Inhibition",
    "RECORDED_MEASUREMENT": 0
  },
  {
    "MOLECULE": "CN(C)c1ccc(C(c2ccc(N(C)C)cc2)c2cc([N+](=O)[O-])ccc2Cl)cc1",
    "TGT": "Plasmodium falciparum",
    "METRIC_NAME": "Inhibition",
    "RECORDED_MEASUREMENT": 67
  },
  {
    "MOLECULE": "NC(=O)NC(=O)C=Cc1ccco1",
    "TGT": "Plasmodium falciparum",
    "METRIC_NAME": "Inhibition",
    "RECORDED_MEASUREMENT": 0
  },
  {
    "MOLECULE": "O=C(NCCN1CCOCC1)c1ccc(O)c(-c2cccc(C(F)(F)F)c2)c1",
    "TGT": "Plasmodium falciparum",
    "METRIC_NAME": "Inhibition",
    "RECORDED_MEASUREMENT": 48
  },
  {
    "MOLECULE": "CN(C)CCCNCCS(=O)(=O)c1cccc(Nc2ccc(-c3cccc(N(C)C)c3)cn2)c1",
    "TGT": "Plasmodium falciparum",
    "METRIC_NAME": "Inhibition",
    "RECORDED_MEASUREMENT": 0
  },
  {
    "MOLECULE": "O=C(/C=C/c1cccc2ccccc12)NCCCCCN1CCC(c2c[nH]c3ccccc23)CC1",
    "TGT": "Plasmodium falciparum",
    "METRIC_NAME": "Inhibition",
    "RECORDED_MEASUREMENT": 6
  },
  {
    "MOLECULE": "CO/C(=C\\C=C\\c1cc2cc(Cl)c(Cl)cc2[nH]1)C(=O)NC1CCN(CCNc2ccccc2)CC1",
    "TGT": "Plasmodium falciparum",
    "METRIC_NAME": "Inhibition",
    "RECORDED_MEASUREMENT": 98
  },
  {
    "MOLECULE": "CN1Cc2cc(NC(=O)/C=C/c3ccccc3Cl)ccc2C(C)(C)C1.Cl",
    "TGT": "Plasmodium falciparum",
    "METRIC_NAME": "Inhibition",
    "RECORDED_MEASUREMENT": 96
  }
]
